# system: hPK, M2 (Homo sapiens)
# Sequence (P14618 whole entry): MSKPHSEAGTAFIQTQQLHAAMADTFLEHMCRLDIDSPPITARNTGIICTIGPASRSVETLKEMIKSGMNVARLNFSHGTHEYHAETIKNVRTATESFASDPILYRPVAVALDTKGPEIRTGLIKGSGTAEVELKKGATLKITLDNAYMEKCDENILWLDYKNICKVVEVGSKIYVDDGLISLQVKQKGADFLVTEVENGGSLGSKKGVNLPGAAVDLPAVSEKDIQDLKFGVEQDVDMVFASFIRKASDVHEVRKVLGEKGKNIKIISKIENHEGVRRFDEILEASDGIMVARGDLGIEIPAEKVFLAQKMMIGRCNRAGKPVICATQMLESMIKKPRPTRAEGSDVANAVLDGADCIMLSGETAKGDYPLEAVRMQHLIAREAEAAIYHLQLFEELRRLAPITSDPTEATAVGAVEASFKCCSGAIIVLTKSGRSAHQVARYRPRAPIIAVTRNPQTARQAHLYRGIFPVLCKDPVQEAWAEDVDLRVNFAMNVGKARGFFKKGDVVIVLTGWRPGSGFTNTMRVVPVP
# test.protocol: luminescent pyruvate kinase-luciferase coupled assay (qHTS)
# Format: biochemical
# applied.conditions: Table 2; 0.1 mM ADP, 0.5 mM PEP; mean of three replicate experiments; read-out: hPK, M2 AC50
parameter: AC50 (µM)

For orientation, consider the following solved cases.
O=C1CCc2cc(S(=O)(=O)Nc3cccc(-c4ccccc4)c3)ccc2N1 ... 14
O=C1CCc2cc(S(=O)(=O)Nc3ccc(Cl)cc3)ccc2N1 ... 3.2
O=C1CCc2cc(S(=O)(=O)Nc3ccc4ccccc4c3)ccc2N1 ... 2.9
Cc1ccccc1NS(=O)(=O)c1ccc2c(c1)CCC(=O)N2 ... 3.9
O=C1CCc2cc(S(=O)(=O)Nc3cccnc3)ccc2N1 ... 23
COc1cccc(NS(=O)(=O)c2ccc3c(c2)CCC(=O)N3)c1 ... 3.2
O=C1CCc2cc(S(=O)(=O)Nc3cccc(Cl)c3)ccc2N1 ... 0.65

[1] O=C1CCc2cc(S(=O)(=O)Nc3ccc4c(c3)OCCO4)ccc2N1
[2] O=C1CCc2cc(S(=O)(=O)Nc3ccccc3F)ccc2N1
Record comparison, field AC50: mark the lower of 1 and 2 . Answer = label.
2
